- target.or.system: UniProt P06870
- Sequence (P06870 25-262): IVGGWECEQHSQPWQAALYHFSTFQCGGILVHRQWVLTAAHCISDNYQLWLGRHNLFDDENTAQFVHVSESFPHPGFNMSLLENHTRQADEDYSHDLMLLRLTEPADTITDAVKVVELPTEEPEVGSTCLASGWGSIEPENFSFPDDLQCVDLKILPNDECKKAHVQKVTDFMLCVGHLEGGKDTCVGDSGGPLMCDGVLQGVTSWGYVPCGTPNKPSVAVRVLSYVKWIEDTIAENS
value.kind: pIC50
One number for each entry, as −log10 of the molar value.

Cc1cc(CN)ccc1CNc1nccc2c1ccn2Cc1ccc(Cn2ccccc2=O)cc1: 5.28
NCc1ccc(CNc2nccc3c2ccn3Cc2csc(-c3ccccc3)n2)cc1: 5.08
Cc1cc(CN)ccc1CNc1nccc2c1ccn2Cc1csc(-c2ccccc2)n1: 5.09

The compound identified as `c1ccc(-c2nc(Cn3ccc4c(NCc5cnc6[nH]ccc6c5)nccc43)cs2)cc1` registered its pIC50 at 4.99

* * *

- target.or.system: Human plasma kallikrein (Homo sapiens (Human))
- Sequence (P03952 391-638): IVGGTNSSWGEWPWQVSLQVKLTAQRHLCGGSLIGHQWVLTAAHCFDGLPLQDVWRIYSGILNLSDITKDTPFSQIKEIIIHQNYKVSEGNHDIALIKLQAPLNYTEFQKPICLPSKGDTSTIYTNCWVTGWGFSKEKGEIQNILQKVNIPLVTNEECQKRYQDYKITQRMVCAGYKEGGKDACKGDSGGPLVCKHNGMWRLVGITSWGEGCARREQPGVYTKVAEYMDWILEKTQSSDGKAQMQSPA
- Sequence (P03952 20-390 partner): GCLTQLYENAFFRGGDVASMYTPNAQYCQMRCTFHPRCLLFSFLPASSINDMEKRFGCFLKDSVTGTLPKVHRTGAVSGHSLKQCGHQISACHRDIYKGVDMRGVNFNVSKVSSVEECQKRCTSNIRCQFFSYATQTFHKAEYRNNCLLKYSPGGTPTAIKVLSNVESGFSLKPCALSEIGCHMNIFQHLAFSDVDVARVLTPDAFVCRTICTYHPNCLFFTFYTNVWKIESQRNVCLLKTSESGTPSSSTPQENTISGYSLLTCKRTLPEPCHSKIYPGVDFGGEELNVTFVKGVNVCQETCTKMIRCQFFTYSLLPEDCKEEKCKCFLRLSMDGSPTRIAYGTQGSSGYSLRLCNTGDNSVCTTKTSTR
- assay.info: Determination of the IC50 for plasma kallikrein (fluorogenic substrate H-DPro-Phe-Arg-AFC)
- experimental.context: 37° C., read-out: IC50 (human PKal)
Assign IC50 to each entry below.
Give bare numbers, in µM.

Solved entries:
Cc1cnn(Cc2ccc(CN3CCOc4c(NCc5ccc6c(N)nccc6c5)ncnc43)cc2)c1: 20.5
NCc1ccc(CNc2nccc3c2ccn3Cc2ccc(Cn3ccccc3=O)cc2)cc1: 5.37

Next compound, IC50 to be filled in.
The compound identified as `Cc1cc(CN)ccc1CNc1nccc2c1ccn2Cc1ccc(Cn2ccccc2=O)cc1` registered its IC50 at 6.3
